Reference source for all entries: ChEMBL document CHEMBL3611975

protocol_description: Cytotoxicity against African green monkey Vero cells assessed as cell viability after 72 hrs by MTT assay
Format: cell-based
cond: chlorocebus sabaeus, read-out: CTD50
Labelling: CC50 at 72 h reported below 60 µM becomes criterion met; at or above becomes criterion not met.

1) CCOc1ncnc2c1ncn2[C@H]1C[C@H]2[C@H](CO)[C@@H]1C[C@@H]2Cl    criterion not met
2) OC[C@H]1[C@@H]2C[C@H](n3cnc4c(NC5CCCC5)ncnc43)[C@H]1C[C@@H]2Cl    criterion met
3) CN(C)c1ncnc2c1ncn2[C@H]1C[C@H]2[C@H](CO)[C@@H]1C[C@@H]2Cl    criterion not met
4) OC[C@H]1[C@@H]2C[C@H](n3cnc4c(NC5CCCCC5)ncnc43)[C@H]1C[C@@H]2Cl    criterion met
5) OC[C@@H](Cc1ccccc1)Nc1ncnc2c1ncn2[C@H]1C[C@H]2[C@H](CO)[C@@H]1C[C@@H]2Cl    criterion not met
6) CCN(CC)CCNc1ncnc2c1ncn2[C@H]1C[C@H]2[C@H](CO)[C@@H]1C[C@@H]2Cl    criterion not met
7) O=c1ccn([C@H]2C[C@H]3[C@H](CO)[C@@H]2C[C@@H]3Cl)c(=O)[nH]1    criterion not met
8) OC[C@H]1[C@@H]2C[C@H](n3cnc4c(NCc5ccncc5)ncnc43)[C@H]1C[C@@H]2Cl    criterion not met
9) Cc1cn([C@H]2C[C@H]3[C@H](CO)[C@@H]2C[C@@H]3Cl)c(=O)[nH]c1=O    criterion met
10) OC[C@H]1[C@@H]2C[C@H](n3cnc4c(NCCc5ccc(O)cc5)ncnc43)[C@H]1C[C@@H]2Cl    criterion not met
11) COc1ccc(CCNc2ncnc3c2ncn3[C@H]2C[C@H]3[C@H](CO)[C@@H]2C[C@@H]3Cl)cc1    criterion met
12) OC[C@H]1[C@@H]2C[C@H](n3cnc4c(NCCc5ccccc5)ncnc43)[C@H]1C[C@@H]2Cl    criterion met
13) OC[C@H]1[C@@H]2C[C@H](n3cnc4c(N5CCOCC5)ncnc43)[C@H]1C[C@@H]2Cl    criterion not met
14) CCN(CC)CCCNc1ncnc2c1ncn2[C@H]1C[C@H]2[C@H](CO)[C@@H]1C[C@@H]2Cl    criterion not met

* * *

Tested on: Influenza A virus
protocol_description: Antiviral activity against Influenza A virus (A/Puerto Rico/8/1934(H1N1)) infected in MDCK cells assessed as decrease in virus titer after 48 hrs by MTT assay
Assay type: functional, organism-based
pEC50: −log10 of the molar value.
condition met means recorded pEC50 is 4 or above; condition not met means it is below 4.

1) OC[C@H]1[C@@H]2C[C@H](n3cnc4c(NCCc5ccc(O)cc5)ncnc43)[C@H]1C[C@@H]2Cl    condition met
2) CN1CCN(c2ncnc3c2ncn3[C@H]2C[C@H]3[C@H](CO)[C@@H]2C[C@@H]3Cl)CC1    condition met
3) Cc1cn([C@H]2C[C@H]3[C@H](CO)[C@@H]2C[C@@H]3Cl)c(=O)[nH]c1=O    condition not met
4) CN1CCN(Nc2ncnc3c2ncn3[C@H]2C[C@H]3[C@H](CO)[C@@H]2C[C@@H]3Cl)CC1    condition met
5) OC[C@H]1[C@@H]2C[C@H](n3cnc4c(NCc5ccncc5)ncnc43)[C@H]1C[C@@H]2Cl    condition not met
6) CCN(CC)c1ncnc2c1ncn2[C@H]1C[C@H]2[C@H](CO)[C@@H]1C[C@@H]2Cl    condition met
